Recorded TGI, one value per entry.
Tested on: K-562 leukemia
ASSAY OVERVIEW: NCI tumour cell line growth inhibition, 48 h

Study these solved cases before continuing.
{"COMPOUND": "Cc1c2c(nc3ccccc13)C(=O)c1cccnc1C2=O", "TGI": "> 100 µM"}
{"COMPOUND": "C#Cc1cccc(Nc2ncnc3ccc(OCCCCNCCS(C)(=O)=O)cc23)c1", "TGI": "14.6 µM"}
{"COMPOUND": "O=C(/C=C/c1ccccc1O)c1ccc([N+](=O)[O-])cc1", "TGI": "71.6 µM"}
{"COMPOUND": "CCOC(=O)C(CCC(N)=O)(CCC(=O)OC)C(=O)OCC", "TGI": "> 100 µM"}
{"COMPOUND": "COc1ccc2[nH]c3c(c2c1)CC(=O)N1CCCC(CC3O)C1 (stereo unspecified)", "TGI": "> 100 µM"}

Shifting focus to the compound that follows.
Data request: Look at this compound and give its reported TGI. Nc1[nH]c(=S)nc2nc3c(c(-c4ccccc4)c12)CCCC3
Data returned: > 100 µM

###

System: SF-268 CNS
ASSAY OVERVIEW: NCI tumour cell line growth inhibition, 48 h
MEASUREMENT KIND: TGI

Study these solved cases before continuing.
{"COMPOUND": "CCC1(CC)C(=O)N(C(=O)c2ccccc2)N(C(=O)c2ccc(Cl)cc2)C1=O", "MEASUREMENT KIND": "TGI", "RESULT": "> 75 µM"}
{"COMPOUND": "c1cc2nnsc2s1", "MEASUREMENT KIND": "TGI", "RESULT": "> 100 µM"}
{"COMPOUND": "CSc1ccc2c(cc1=O)[C@@H](NC(=O)c1ccc(Cl)cc1)CCc1cc(O)c(O)c(O)c1-2", "MEASUREMENT KIND": "TGI", "RESULT": "> 100 µM"}
{"COMPOUND": "CN(Cc1cn(O)c2nc(=N)nc(N)c-2n1)c1ccc(C(=O)NC23CC4CC(CC(C4)C2)C3)cc1", "MEASUREMENT KIND": "TGI", "RESULT": "81.4 µM"}
{"COMPOUND": "O/N=C(/CC(O)(C(F)(F)F)C(F)(F)F)c1ccccc1", "MEASUREMENT KIND": "TGI", "RESULT": "> 10 µM"}

Data request: Look at this compound and give its reported TGI. CON(C)C(=O)[C@H]1C[C@@]1(C)CO
Data returned: > 100 µM

Data request: Would you mind doing O=C(Cc1nc2ccccc2o1)C(=O)Nc1cccc(Cl)c1 as well?
Data returned: > 100 µM

Data request: Would you mind doing CCCCN1C(=O)c2c(Br)sc(Br)c2C1=O as well?
Data returned: > 100 µM

Data request: Would you mind doing O=C(NCCCNCCN1C(=O)c2cccc3cc([N+](=O)[O-])cc(c23)C1=O)c1cc(-c2ccccc2)nc2ccccc12 as well?
Data returned: 15.9 µM

Data request: Would you mind doing O=C(O)CC(NC(=O)/C(=C/c1ccccc1)NC(=O)c1ccccc1)C(=O)O (stereo not given) as well?
Data returned: > 100 µM

###

Test system: NCI-H522 lung
ASSAY OVERVIEW: NCI tumour cell line growth inhibition, 48 h; in the data active = GI50 below about 0.43 µM; inactive = the rest
Your response should consist of one outcome taken from active, inactive

Recorded results for 2 compounds are shown here.
{"COMPOUND": "C=CC(=O)NC(N)=NC#N", "MEASURED ON": "NCI-H522 lung", "CLASS NAME": "inactive"}
{"COMPOUND": "CCOC(=O)C1=C(C)NC(=O)NC1CN1C(=O)c2ccccc2C1=O (stereo not given)", "MEASURED ON": "NCI-H522 lung", "CLASS NAME": "inactive"}

Data request: For COc1cc(/C=C/c2cc(/C=C/c3ccc(O)c(OC)c3)n(C(=O)Nc3ccccc3Cl)n2)ccc1O , what call appears in the results of this test?
Data returned: active

Data request: Would you mind doing N#Cc1c(NC(=O)c2ccc(F)cc2)sc2c1CCCC2 as well?
Data returned: inactive

Data request: Would you mind doing O=C(c1ccc(C(F)(F)F)c(Cl)c1)N(Cc1ccc(Cl)cc1)c1ccc(-c2cc(C(F)(F)F)[nH]n2)c(O)c1 as well?
Data returned: inactive

Data request: Would you mind doing COC1=C(C)C(=O)c2c(c(CCCl)c3n2CCC3OC(C)=O)C1=O (stereo not given) as well?
Data returned: active

Data request: Would you mind doing O=C(C=P(c1ccccc1)(c1ccccc1)c1ccccc1)CCl as well?
Data returned: active

Data request: Would you mind doing O=C1c2cccnc2C(=O)c2c1c(C(=O)OCCN1CCCCC1)c1ccccn21 as well?
Data returned: active

Data request: Would you mind doing Cc1cc(N2CCCCC2)nc(NC2CCCC(Nc3ccnc4cc(Cl)ccc34)C2)n1 (stereo not given) as well?
Data returned: inactive

Data request: Would you mind doing CC(C)(C)CC(C)(C)c1ccc(O)c(Cc2ccc(Cl)cc2Cl)c1 as well?
Data returned: inactive

###

Recorded TGI, one value per entry.
System: SNB-75 CNS
ASSAY OVERVIEW: NCI tumour cell line growth inhibition, 48 h
Dear colleague, please return just the value in µM, with no unit written.

Study these solved cases before continuing.
{"COMPOUND": "CC(C)CCCC(C)[C@H]1CC[C@H]2n3c(nc4ccccc43)CCC[C@]12C (stereo partly specified)", "TGI, µM": 29.3}
{"COMPOUND": "C=CC(=O)N1C[C@@H]2CCOc3c(Cl)c(-c4c(O)cccc4F)c(F)c4ncnc(c34)N2C[C@H]1C", "TGI, µM": 23.5}

Data request: Could you share what TGI was measured for CCOC(=O)CCC(C(=O)OCC)n1nc2ccc(Nc3c(C)[n+]([O-])c4cc(F)c(OCC)cc4[n+]3[O-])cc2n1 (stereo unspecified) , tested on SNB-75 CNS?
Data returned: 32.9

###

Recorded TGI, one value per entry.
System: OVCAR-5 ovarian
ASSAY OVERVIEW: NCI tumour cell line growth inhibition, 48 h

Study these solved cases before continuing.
{"CHEM SMILES": "NC1CCCCC1N.O=C1C=C/C(=C(/c2ccc(O)c(Br)c2)c2ccccc2S(=O)(=O)[O-])C=C1Br.O=C1C=C/C(=C(/c2ccc(O)c(Br)c2)c2ccccc2S(=O)(=O)[O-])C=C1Br.[Pt+4]", "TGI": "87.7 µM"}
{"CHEM SMILES": "C#Cc1cccc(Nc2ncnc3ccc(OCCCCNCCS(C)(=O)=O)cc23)c1", "TGI": "> 25 µM"}
{"CHEM SMILES": "Cc1cc2c(c(O)c1-c1c(C)cc(O)c3c1C(=O)C=CC3=O)C(=O)C=CC2=O", "TGI": "7.86 µM"}
{"CHEM SMILES": "CON(C)C(=O)[C@H]1C[C@@]1(C)CO", "TGI": "> 100 µM"}

Data request: Look at this compound and give its reported TGI. CCOC(=O)Cn1c2ccc(Br)cc2c2nc3ccccc3nc21
Data returned: > 100 µM

Data request: Would you mind doing CC1=C(C)C(=O)O[C@@H]([C@](C)(O)[C@]2(O)CC[C@@]3(O)[C@@H]4C[C@H](O)[C@]5(O)[C@@H](O)C=CC(=O)[C@]5(C)[C@H]4CC[C@]23C)C1 as well?
Data returned: > 100 µM

Data request: Would you mind doing COc1cc([N+](=O)[O-])c(OC)cc1-c1nc2sc(C)cn2c1/C(N)=N/C(=N)N as well?
Data returned: > 100 µM

Data request: Would you mind doing CCOC(=O)c1ccc(C(=O)n2ccnc2)[nH]1 as well?
Data returned: > 100 µM

###

System: OVCAR-5 ovarian
ASSAY OVERVIEW: NCI tumour cell line growth inhibition, 48 h
MEASUREMENT KIND: GI50

Study these solved cases before continuing.
{"COMPOUND": "COCCOC1=CC(=O)c2c(O)ccc(O)c2C1=O", "RESULT": "1920 nM"}
{"COMPOUND": "COc1cc([N+](=O)[O-])c(OC)cc1-c1nc2sc(C)cn2c1/C(N)=N/C(=N)N", "RESULT": "> 100000 nM"}
{"COMPOUND": "CC(C)(c1ccccc1)c1cc(O)c(C(C)(C)c2ccccc2)cc1O", "RESULT": "2630 nM"}
{"COMPOUND": "O=c1c2ccccc2c(/C=N\\NC2=NCCN2)c2oc3ccccc3n12", "RESULT": "19800 nM"}

Shifting focus to the compound that follows.
Data request: Could you share what GI50 was measured for C=C1C(=O)O[C@H]2[C@H](OC(C)=O)[C@@H](C)CCCC3(C)OC3CCC3(CO3)[C@H](O)C[C@@H]12 (stereo not given in full) , tested on OVCAR-5 ovarian?
Data returned: 2380 nM

###

System: RXF 393 renal
ASSAY OVERVIEW: NCI tumour cell line growth inhibition, 48 h
Recorded TGI, one value per entry.

Study these solved cases before continuing.
{"COMPOUND": "CSc1ccc2c(cc1=O)[C@@H](NC(=O)c1ccc(Cl)cc1)CCc1cc(O)c(O)c(O)c1-2", "RESULT": "> 100 µM"}
{"COMPOUND": "CCOC(=O)C1(C/C=C/CCl)CCCC1=O (stereo unspecified)", "RESULT": "32.7 µM"}
{"COMPOUND": "Nc1ccc(O)c2c1C(=O)c1c(N)ccc(O)c1C2=O", "RESULT": "> 100 µM"}
{"COMPOUND": "O=C(O)c1ccccc1CC1Cc2cc3c(cc2C1)CCC3", "RESULT": "> 100 µM"}
{"COMPOUND": "Cc1ccc(C=C2C(Cl)=C(Cl)C(Cl)=C2Cl)cc1", "RESULT": "0.906 µM"}

Data request: Look at this compound and give its reported TGI. COc1cc2cc(C(=O)N3CC(CCl)c4ccc([N+](=O)[O-])cc43)[nH]c2c(OC)c1OC (stereo unspecified)
Data returned: > 100 µM

Data request: Would you mind doing CCn1c2ccccc2c(=O)c2c(OC)ccc(OC)c21 as well?
Data returned: 80.1 µM

Data request: Would you mind doing CC(=O)OCC1OC(c2c(OC(C)=O)cc(C)c3c(=O)cc(/C(C(C)=O)=C(\C)O)oc23)C(OC(C)=O)C(OC(C)=O)C1OC(C)=O (stereo unspecified) as well?
Data returned: > 100 µM
